MFI at 33.3 nM overview
# assay_target: T1, human PD-L1 (human, UniProt Q9NZQ7 19-290)
# T1 construct: whole, on cells; also called huPD-L1
# T1 sequence (Q9NZQ7 19-290): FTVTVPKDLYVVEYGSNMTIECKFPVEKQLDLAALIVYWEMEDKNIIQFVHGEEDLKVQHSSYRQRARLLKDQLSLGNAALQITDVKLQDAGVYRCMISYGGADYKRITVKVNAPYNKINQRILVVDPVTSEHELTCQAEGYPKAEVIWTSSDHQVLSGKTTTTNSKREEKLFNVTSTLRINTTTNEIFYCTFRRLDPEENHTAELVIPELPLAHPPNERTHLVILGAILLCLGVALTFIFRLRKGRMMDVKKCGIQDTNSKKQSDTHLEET
# assay_explanation: flow cytometry, CHO cells stably expressing huPD-L1, 33.3 nM, PE anti-human Fc

binder: S15T/H18Y/E35D/M47V/T62A/N64S/A71G/L85Q/D90N CD80 IgV-Fc (Fc fusion, not shown: a dimerising Fc or GST) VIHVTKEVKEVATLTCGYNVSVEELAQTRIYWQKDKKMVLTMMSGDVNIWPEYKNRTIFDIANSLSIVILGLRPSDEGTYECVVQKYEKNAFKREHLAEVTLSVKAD
MFI at 33.3 nM / MFI: 13900
--
binder: E24D/Q27R/E35D/T41S/M47V/L85Q CD80 IgV-Fc (Fc fusion, not shown: a dimerising Fc or GST) VIHVTKEVKEVATLSCGHNVSVEDLARTRIYWQKDKKMVLSMMSGDVNIWPEYKNRTIFDITNNLSIVILALRPSDEGTYECVVQKYEKDAFKREHLAEVTLSVKAD
MFI at 33.3 nM / MFI: 2860
--
binder: E35D/M47I/T62S/L85Q/E88D CD80 IgV-Fc (Fc fusion, not shown: a dimerising Fc or GST) VIHVTKEVKEVATLSCGHNVSVEELAQTRIYWQKDKKMVLTMMSGDINIWPEYKNRTIFDISNNLSIVILALRPSDEGTYECVVQKYDKDAFKREHLAEVTLSVKAD
MFI at 33.3 nM / MFI: 8420
--
binder: E35D/D46E/M47L/V68M/L85Q/F92L CD80 IgV-Fc (Fc fusion, not shown: a dimerising Fc or GST) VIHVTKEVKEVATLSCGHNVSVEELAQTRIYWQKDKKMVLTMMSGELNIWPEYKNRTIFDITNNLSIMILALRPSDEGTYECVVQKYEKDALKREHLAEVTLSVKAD
MFI at 33.3 nM / MFI: 13200
--
binder: Q33R/M47V/T62N/A71G CD80 IgV-Fc (Fc fusion, not shown: a dimerising Fc or GST) VIHVTKEVKEVATLSCGHNVSVEELAQTRIYWRKEKKMVLTMMSGDVNIWPEYKNRTIFDINNNLSIVILGLRPSDEGTYECVVLKYEKDAFKREHLAEVTLSVKAD
MFI at 33.3 nM / MFI: 12200

# credit: patent US20210130436A1
